B1: library; numbered along this chain (parent)
chain: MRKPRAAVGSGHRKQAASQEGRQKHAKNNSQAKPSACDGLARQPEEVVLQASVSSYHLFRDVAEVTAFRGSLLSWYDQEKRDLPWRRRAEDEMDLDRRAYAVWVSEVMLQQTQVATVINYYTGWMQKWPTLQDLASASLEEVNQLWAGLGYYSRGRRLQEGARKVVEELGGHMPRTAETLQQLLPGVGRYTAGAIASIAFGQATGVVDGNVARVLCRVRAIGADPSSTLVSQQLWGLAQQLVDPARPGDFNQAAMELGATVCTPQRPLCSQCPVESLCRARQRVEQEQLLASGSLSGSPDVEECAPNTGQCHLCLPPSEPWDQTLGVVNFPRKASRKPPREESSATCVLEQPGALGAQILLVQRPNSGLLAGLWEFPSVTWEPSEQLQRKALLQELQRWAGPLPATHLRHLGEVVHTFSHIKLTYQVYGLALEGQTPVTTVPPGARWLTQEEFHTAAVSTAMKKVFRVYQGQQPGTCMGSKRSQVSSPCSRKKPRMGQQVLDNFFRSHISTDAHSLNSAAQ

# Variants of: B1
# assayProcedure: 8OG:A repair function score (normalized; synonymous = 0, nonsense = -1) (normalized log-likelihood score); higher = more repair activity (WT-like);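 note: cells sorted at 72 h after reporter transfection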
# conditions: with 8OG:A DNA repair reporter (GFP) in HEK-293 MUTYH KO cells
Each record's class is read off its 8OG:A repair function score using these ranges: low (below -0.3), intermediate (-0.3 to below -0.008), high (-0.008 or more)

IN: Band for "R2Y" ?
OUT: intermediate

IN: Could you place "T380N" in its proper category? Many thanks.
OUT: intermediate

IN: Quick check: band for "G297D"
OUT: intermediate

IN: Field: class (8OG:A repair function score) — entry: "V458D"
OUT: low

IN: Bin this entry: "R42V"
OUT: high

IN: Exercise: read the entry "Q394D" and state which class it falls under.
OUT: high

IN: Classify this variant: "P339W"
OUT: intermediate

IN: Which class is correct for the following variant? "V218N"
OUT: low

IN: For this variant, which bin applies? "P174W"
OUT: low

IN: Which class holds "P365W" ?
OUT: intermediate

IN: Which 8OG:A repair function score band matches "L183S" ?
OUT: high

IN: Exercise: read the entry "F376I" and state which class it falls under.
OUT: low

IN: Where would "K464Y" land among the classes by reported 8OG:A repair function score?
OUT: low

IN: Into which category would you place "L408W" ?
OUT: low

IN: Which of the defined bands does the recorded 8OG:A repair function score of "I118S" sit within?
OUT: intermediate

IN: Exercise: read the entry "S483K" and state which class it falls under.
OUT: intermediate

IN: Hi, small favor: classify "W447K" by its 8OG:A repair function score when you get a moment.
OUT: low

IN: Could you tell me which band "R266N" belongs to?
OUT: intermediate

IN: Dear colleague, I would appreciate it if you could identify the bin for "N503H" and reply at your convenience.
OUT: intermediate

IN: State the band of "Q310M"
OUT: intermediate

IN: Hi there! Could you help me figure out the category for "L516H" please?
OUT: high

IN: Which 8OG:A repair function score category applies to "G434S" here?
OUT: intermediate

IN: Which category fits this record: "E92Y"
OUT: intermediate

IN: Just checking, what class would you give "S335H" here?
OUT: high

IN: Would you mind sorting "A177P" into the appropriate category?
OUT: intermediate

IN: Dear colleague, I would appreciate it if you could identify the bin for "C269I" and reply at your convenience.
OUT: low

IN: Pick a category. Item: "S54G"
OUT: high

IN: Could you place "Q182G" in its proper category? Many thanks.
OUT: high

IN: Category of "K481D" :
OUT: high

IN: // bin(item) where item = "E141D"
OUT: intermediate

IN: Band assignment needed for "N210P" please.
OUT: low

IN: Classify this variant: "V104T"
OUT: low

IN: Hi, small favor: classify "F200N" by its 8OG:A repair function score when you get a moment.
OUT: low

IN: Which bin, given its 8OG:A repair function score, does "V62C" occupy?
OUT: high

IN: # classify by 8OG:A repair function score band: "T204K"
OUT: high

IN: State the band of "R246C"
OUT: low

IN: Please classify: "L139R"
OUT: intermediate

IN: Hi there! Could you help me figure out the category for "S296W" please?
OUT: high

IN: Class label required: "Q521R"
OUT: intermediate

IN: Which 8OG:A repair function score category applies to "Q288T" here?
OUT: high

IN: Category lookup for the variant "S480H"
OUT: high

IN: Into which bin does this variant go? "H410K"
OUT: intermediate

IN: // bin(item) where item = "L229H"
OUT: high

IN: Tag the class for "A334N"
OUT: high

IN: Which category does the recorded 8OG:A repair function score put "V214A" in?
OUT: low

IN: Which band does "R364Y" fall in?
OUT: low

IN: Tag the class for "A194D"
OUT: low

IN: Band for the recorded 8OG:A repair function score of "Q288W" ?
OUT: intermediate

IN: Which band does "D512M" fall in?
OUT: intermediate

IN: Textbook exercise: identify the category of the variant given here, "M496D" , according to its measured value.
OUT: high

IN: // return the class label for "S52H"
OUT: intermediate

IN: Returns: class label. Input: "T439I"
OUT: high

IN: Each variant maps to one class by 8OG:A repair function score. Which class for "R2I" ?
OUT: high

IN: Quick check: band for "Q386H"
OUT: high

IN: Band assignment needed for "A405W" please.
OUT: low

IN: // return the class label for "R389I"
OUT: high

IN: Which bin should I file "R219H" under?
OUT: low

IN: Any idea which band "R281P" is in?
OUT: low

IN: Record "K493M" — which class?
OUT: high

IN: Each variant maps to one class by 8OG:A repair function score. Which class for "V142W" ?
OUT: low

IN: Into which bin does this variant go? "M496R"
OUT: high

IN: Please classify: "S298V"
OUT: high

IN: Please indicate the class for "Q132I" based on its 8OG:A repair function score.
OUT: intermediate

IN: Class for "C489P" ?
OUT: high

IN: Each variant maps to one class by 8OG:A repair function score. Which class for "L408C" ?
OUT: high

IN: Pick a category. Item: "D322G"
OUT: intermediate

IN: # bin label for "R332A"
OUT: intermediate

IN: Looking at "N251T" , which class would you pick?
OUT: low

IN: For the record "L403W" , report the class its 8OG:A repair function score corresponds to.
OUT: low

IN: Entry "G150S" belongs to which category?
OUT: low

IN: Input "L423Y" ; output its category
OUT: intermediate

IN: Which category fits this record: "K333E"
OUT: low

IN: Which band does "A457S" fall in?
OUT: low

IN: Record "L131G" — which class?
OUT: low

IN: Using the reported 8OG:A repair function score, which band applies to "G429P" ?
OUT: low

IN: Which class does "G293P" fall in?
OUT: intermediate

IN: # bin label for "Q498V"
OUT: high
